- targetUnderTest: T1, purified interference factor(s) from serum of Donor B
- T1 construct: text names Donors 8, 19 and 30
- protocolDetails: Biacore, immobilized interference factor
Measured binding vs Reference Sequence (=100%) of individual entries

[
  {
    "binder": "SEQ ID NO 82 (VHH, P84A) VHH: EVQLVESGGGLVQPGGSLRLSCAASRSIGRLDRMGWYRHRPGEPRELVATITGGSSINYGDSVKGRFTISIDNSKNTVYLQMNSLRAEDTAVYYCNFNKYVTSRDTWGQGTLVTVSS",
    "uom": "%",
    "binding vs Reference Sequence (=100%)": 80
  },
  {
    "binder": "SEQ ID NO 70 (VHH, T110Q) VHH: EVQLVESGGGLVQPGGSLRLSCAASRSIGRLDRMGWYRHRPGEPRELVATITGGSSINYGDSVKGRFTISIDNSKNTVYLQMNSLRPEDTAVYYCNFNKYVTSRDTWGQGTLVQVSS",
    "uom": "%",
    "binding vs Reference Sequence (=100%)": 105
  },
  {
    "binder": "SEQ ID NO 81 (VHH, L11V) VHH: EVQLVESGGGVVQPGGSLRLSCAASRSIGRLDRMGWYRHRPGEPRELVATITGGSSINYGDSVKGRFTISIDNSKNTVYLQMNSLRPEDTAVYYCNFNKYVTSRDTWGQGTLVTVSS",
    "uom": "%",
    "binding vs Reference Sequence (=100%)": 50
  },
  {
    "binder": "SEQ ID NO 72 (VHH, S112G, S113G) VHH: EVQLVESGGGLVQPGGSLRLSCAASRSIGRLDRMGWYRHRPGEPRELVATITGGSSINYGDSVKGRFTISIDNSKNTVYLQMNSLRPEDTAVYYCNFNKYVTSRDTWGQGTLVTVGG",
    "uom": "%",
    "binding vs Reference Sequence (=100%)": 47
  },
  {
    "binder": "SEQ ID NO 85 (VHH, L11S, T110Q, S112G, S113G) VHH: EVQLVESGGGSVQPGGSLRLSCAASRSIGRLDRMGWYRHRPGEPRELVATITGGSSINYGDSVKGRFTISIDNSKNTVYLQMNSLRPEDTAVYYCNFNKYVTSRDTWGQGTLVQVGG",
    "uom": "%",
    "binding vs Reference Sequence (=100%)": 5
  },
  {
    "binder": "SEQ ID NO 67 (VHH, R83K) VHH: EVQLVESGGGLVQPGGSLRLSCAASRSIGRLDRMGWYRHRPGEPRELVATITGGSSINYGDSVKGRFTISIDNSKNTVYLQMNSLKPEDTAVYYCNFNKYVTSRDTWGQGTLVTVSS",
    "uom": "%",
    "binding vs Reference Sequence (=100%)": 117
  },
  {
    "binder": "SEQ ID NO 86 (VHH, L11S, T110Q) VHH: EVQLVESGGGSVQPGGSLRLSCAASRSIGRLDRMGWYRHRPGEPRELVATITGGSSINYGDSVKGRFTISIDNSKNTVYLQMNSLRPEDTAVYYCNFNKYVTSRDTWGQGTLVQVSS",
    "uom": "%",
    "binding vs Reference Sequence (=100%)": 6
  },
  {
    "binder": "SEQ ID NO 66 (VHH, L11S) VHH: EVQLVESGGGSVQPGGSLRLSCAASRSIGRLDRMGWYRHRPGEPRELVATITGGSSINYGDSVKGRFTISIDNSKNTVYLQMNSLRPEDTAVYYCNFNKYVTSRDTWGQGTLVTVSS",
    "uom": "%",
    "binding vs Reference Sequence (=100%)": 29
  }
]

Reference source: patent US20140205597A1
